- target_of_assay: mCOX-2 (Mus musculus, UniProt Q05769)
- Construct: made in house; host or cells: insect cells
- Sequence (Q05769 18-604): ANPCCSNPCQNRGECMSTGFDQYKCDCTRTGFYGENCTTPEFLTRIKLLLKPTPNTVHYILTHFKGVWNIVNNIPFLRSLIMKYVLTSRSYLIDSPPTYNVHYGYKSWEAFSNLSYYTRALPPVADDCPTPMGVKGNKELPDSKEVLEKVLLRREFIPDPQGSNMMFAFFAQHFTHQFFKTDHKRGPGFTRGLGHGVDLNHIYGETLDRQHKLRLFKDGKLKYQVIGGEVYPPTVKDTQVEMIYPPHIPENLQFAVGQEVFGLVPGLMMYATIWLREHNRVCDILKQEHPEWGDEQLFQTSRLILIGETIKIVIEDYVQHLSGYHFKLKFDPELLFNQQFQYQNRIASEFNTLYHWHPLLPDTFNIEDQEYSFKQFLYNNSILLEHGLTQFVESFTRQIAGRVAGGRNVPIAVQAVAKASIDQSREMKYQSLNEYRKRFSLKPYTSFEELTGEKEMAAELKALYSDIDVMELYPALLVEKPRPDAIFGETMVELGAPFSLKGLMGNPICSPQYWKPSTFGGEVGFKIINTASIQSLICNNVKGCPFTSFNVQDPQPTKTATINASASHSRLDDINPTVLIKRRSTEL
- procedure_details: Inhibition of COX-2-mediated oxygenation of arachidonic acid and 2-AG, purified enzyme, 15 min preincubation
- Type: biochemical, murine
- details: read-out: IC50, COX-2 oxygenation of arachidonic acid

- molecule_smiles: "CS(=O)(=O)c1ccc(C2=C(c3ccccc3)C(=O)OC2)cc1"
  IC50: "520 nM"

----------
- target_of_assay: mCOX-2 (Mus musculus)
- Construct: made in house; host or cells: insect cells
- procedure_details: Inhibition of COX-2-mediated oxygenation of arachidonic acid and 2-AG, purified enzyme, 15 min preincubation
- Assay type: biochemical, murine
- details: 50 μM AA; 15 min preincubation; LC-MS/MS; read-out: IC50, COX-2 oxygenation of arachidonic acid
pIC50: −log10 of the molar value.

- compound: "COc1ccc2c(c1)c(CC(=O)O)cn2C(=O)c1ccc(Cl)cc1 [DM-INDO]"
  target_of_assay: "mCOX-2 (Mus musculus)"
  pIC50: "< 4.60"
